Test system: albino guinea-pig eye
Experiment: Pruritogenic activity of autocoids: topical drop to the eye (conjunctiva), scratching episodes counted over 15 minutes
Assay type: in vivo
Settings: dose 10 μg, 20 µl drop topically to one eye, 15 minutes, n=12
Quick list: NO OF SCRATCH EPISODES (X̄ ± SEM) per entry.

IN: Please report the recorded NO OF SCRATCH EPISODES (X̄ ± SEM) for CCCCC/C=C\C/C=C\C/C=C\C=C\C(O)CCCC(=O)O (stereo not drawn) [5-Hydroxytetraemoic Acid] .
OUT: 0.33 ± 0.22

IN: Consider next the molecule `CCCCCCCCCCCCCCCCOC[C@@H](O)COP(=O)([O-])OCC[N+](C)(C)C` in the same way.
OUT: 2.67 ± 0.73

====

Quick list: NO OF SCRATCH EPISODES (X̄ ± SEM) per entry.
Test system: albino guinea-pig eye
Assay: Pruritogenic activity of autocoids: topical drop to the eye (conjunctiva), scratching episodes counted over 15 minutes
Type: in vivo
Conditions: dose 10 μg, 20 µl drop topically to one eye, 15 minutes, n=12
The answer should be written as a number, with no unit following it.

These recorded examples may help you get a feel for the data.
CCCCC/C=C\CC(O)/C=C/C=C\C/C=C\CCCC(=O)O (stereo not shown) [12-Hydroxytetraemoic Acid] :: 0.08
CCCCC/C=C\C\C=C/C=C/C=C/[C@@H](SC[C@H](NC(=O)CC[C@H](N)C(=O)O)C(=O)NCC(=O)O)[C@@H](O)CCCC(=O)O :: 0.58

IN: Please tell me: NO OF SCRATCH EPISODES (X̄ ± SEM) of CCCCCC(O)/C=C/C=C\C/C=C\C/C=C\CCCC(=O)O (stereo not shown) [15-Hydroxytetraemoic Acid] , system albino guinea-pig eye?
OUT: 0.08

IN: Consider next the compound `CCCCC/C=C\C[C@@H](O)/C=C/C=C/C=C\[C@@H](O)CCCC(=O)O` in the same way.
OUT: 0.42
